Here, each record is paired with measured EC50 data.
- test-target: human wild type-CFTR (Homo sapiens, UniProt P13569)
- Sequence (P13569 whole entry): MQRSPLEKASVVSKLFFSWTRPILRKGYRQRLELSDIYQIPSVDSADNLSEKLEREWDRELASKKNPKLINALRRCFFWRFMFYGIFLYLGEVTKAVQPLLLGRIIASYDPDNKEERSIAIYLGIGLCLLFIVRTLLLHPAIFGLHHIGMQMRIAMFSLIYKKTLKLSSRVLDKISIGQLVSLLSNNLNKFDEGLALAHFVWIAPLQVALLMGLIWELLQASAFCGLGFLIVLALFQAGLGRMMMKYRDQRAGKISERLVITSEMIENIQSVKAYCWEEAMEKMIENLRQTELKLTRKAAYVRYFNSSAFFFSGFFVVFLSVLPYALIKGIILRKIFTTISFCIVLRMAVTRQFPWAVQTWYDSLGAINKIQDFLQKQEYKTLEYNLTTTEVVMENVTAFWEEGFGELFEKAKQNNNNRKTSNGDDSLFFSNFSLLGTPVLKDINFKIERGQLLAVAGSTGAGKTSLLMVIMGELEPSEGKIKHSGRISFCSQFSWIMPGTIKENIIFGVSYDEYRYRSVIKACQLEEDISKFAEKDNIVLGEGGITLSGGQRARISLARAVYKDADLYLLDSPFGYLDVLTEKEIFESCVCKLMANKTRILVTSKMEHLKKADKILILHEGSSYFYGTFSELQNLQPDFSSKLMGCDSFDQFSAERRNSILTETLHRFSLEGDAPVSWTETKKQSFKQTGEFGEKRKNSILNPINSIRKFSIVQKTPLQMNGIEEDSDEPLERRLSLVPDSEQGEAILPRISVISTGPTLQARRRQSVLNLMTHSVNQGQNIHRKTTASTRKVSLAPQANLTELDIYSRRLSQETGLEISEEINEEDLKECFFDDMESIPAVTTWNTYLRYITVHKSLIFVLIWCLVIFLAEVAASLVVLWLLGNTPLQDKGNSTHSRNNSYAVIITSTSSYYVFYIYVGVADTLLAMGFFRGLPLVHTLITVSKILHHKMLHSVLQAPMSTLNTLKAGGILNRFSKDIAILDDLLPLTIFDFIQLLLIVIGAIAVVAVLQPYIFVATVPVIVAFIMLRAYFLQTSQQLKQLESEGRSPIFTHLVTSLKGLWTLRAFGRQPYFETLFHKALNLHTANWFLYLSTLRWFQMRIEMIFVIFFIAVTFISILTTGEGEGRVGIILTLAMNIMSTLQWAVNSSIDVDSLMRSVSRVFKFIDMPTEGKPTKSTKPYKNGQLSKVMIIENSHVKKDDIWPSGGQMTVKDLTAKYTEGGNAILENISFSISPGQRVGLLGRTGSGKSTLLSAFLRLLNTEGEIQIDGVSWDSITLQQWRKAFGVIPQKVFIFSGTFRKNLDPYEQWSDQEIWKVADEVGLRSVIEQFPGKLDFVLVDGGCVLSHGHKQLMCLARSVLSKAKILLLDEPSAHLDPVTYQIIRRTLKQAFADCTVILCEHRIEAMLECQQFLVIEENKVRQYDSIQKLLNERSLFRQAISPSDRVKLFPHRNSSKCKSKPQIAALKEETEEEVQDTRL
- measurement-description: Cell-based YFP assay
- Parameters: expressed in transfected cells; host or cells: CHO-K1 (Chinese hamster ovary)
- measurement-context: CHO-K1 cells expressing human wild type-CFTR and YFP-H148Q/I152L; forskolin 20 μM = 100% activity; read-out: Cell-based YFP Assay (EC50) Concentration Range

Recorded EC50, per entry:
compound: COc1ccc(-c2ccnc3cc(C(=O)N4CC[C@@H](NC(=O)C5CCN(C)CC5)C4)nn23)cc1OC [Compound 188]
EC50: ≥ 2 µM
//
compound: COc1ccc(-c2ccnc3cc(C(=O)N4CC(C)N(C(=O)c5ccccc5)C(C)C4)nn23)cc1OC (stereo not drawn) [Compound 348]
EC50: 0.2 to 2 µM
//
compound: COC(=O)c1ccc(NC(=O)c2cc3nccc(-c4ccc(Cl)c(Cl)c4)n3n2)cc1 [Compound 40]
EC50: ≥ 2 µM
//
compound: CCCOc1ccc(NC(=O)c2cc3nccc(-c4ccc(OC)c(OC)c4)n3n2)cc1 [Compound 230]
EC50: < 0.2 µM
//
compound: CCN1CCN(c2ccc(NC(=O)c3cc4nccc(-c5ccc(OC)c(OC)c5)n4n3)cc2)CC1 [Compound 270]
EC50: < 0.2 µM
//
compound: COc1ccc(-c2ccnc3cc(C(=O)N4CCN(c5ccccn5)CC4)nn23)cc1OC [Compound 153]
EC50: 0.2 to 2 µM

Reported EC50 for human wild type-CFTR (Homo sapiens, UniProt P13569), given COc1ccc(-c2ccnc3cc(C(=O)N4CCN(C(=O)c5c(F)c(F)c(F)c(F)c5F)[C@@H](C)C4)nn23)cc1OC [Compound 259] ?
0.2 to 2 µM

Follow-up entry: CCOc1ccc(NC(=O)c2cc3nccc(-c4cc(OC)c(OC)cc4C)n3n2)cc1 [Compound 339]
≥ 2 µM

Follow-up entry: COC(=O)[C@@H](NC(=O)c1ccc(NC(=O)c2cc3nccc(-c4ccc(OC)c(OC)c4)n3n2)cc1)C(C)C [Compound 58]
< 0.2 µM
